# Assay Target: Histone deacetylase 7 (Homo sapiens)
# Sequence (Q8WUI4 whole entry): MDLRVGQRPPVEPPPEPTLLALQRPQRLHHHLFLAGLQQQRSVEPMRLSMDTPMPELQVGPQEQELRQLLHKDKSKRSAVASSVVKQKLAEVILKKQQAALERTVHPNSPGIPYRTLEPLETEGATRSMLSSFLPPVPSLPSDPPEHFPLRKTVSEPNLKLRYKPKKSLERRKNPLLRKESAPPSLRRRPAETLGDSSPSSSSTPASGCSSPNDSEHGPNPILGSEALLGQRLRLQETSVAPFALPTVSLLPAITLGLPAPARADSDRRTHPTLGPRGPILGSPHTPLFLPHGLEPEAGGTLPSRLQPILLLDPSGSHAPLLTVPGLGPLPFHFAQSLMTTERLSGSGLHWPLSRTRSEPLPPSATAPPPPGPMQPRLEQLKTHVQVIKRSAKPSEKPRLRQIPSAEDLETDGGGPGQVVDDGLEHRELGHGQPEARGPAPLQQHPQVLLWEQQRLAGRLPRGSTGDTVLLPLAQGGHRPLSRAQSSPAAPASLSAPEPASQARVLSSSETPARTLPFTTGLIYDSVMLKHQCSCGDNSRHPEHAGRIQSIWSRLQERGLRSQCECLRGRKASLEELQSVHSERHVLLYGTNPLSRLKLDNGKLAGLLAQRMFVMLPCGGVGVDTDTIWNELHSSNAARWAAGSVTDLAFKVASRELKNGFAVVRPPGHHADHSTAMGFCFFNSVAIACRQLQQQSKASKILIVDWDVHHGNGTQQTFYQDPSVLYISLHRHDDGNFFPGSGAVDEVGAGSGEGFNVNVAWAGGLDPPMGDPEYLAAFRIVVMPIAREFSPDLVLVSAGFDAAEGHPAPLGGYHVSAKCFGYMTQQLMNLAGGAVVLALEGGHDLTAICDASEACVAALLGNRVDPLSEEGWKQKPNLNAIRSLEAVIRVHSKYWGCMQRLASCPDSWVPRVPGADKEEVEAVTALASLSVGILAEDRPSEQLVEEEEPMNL

{"Compound": "COc1cc(OC)c(/C=C/S(=O)(=O)Cc2ccc(OC)c(NCC(=O)O)c2)c(OC)c1 [RIGOSERTIB]", "Assay Target": "Histone deacetylase 7 (Homo sapiens)", "IC50": "> 10 µM"}

Hello, the source for this data is ChEMBL document CHEMBL5537193, in case you need it.
